# system: T1, human GIP receptor (human) (UniProt P48546)
# T1 sequence (looked up): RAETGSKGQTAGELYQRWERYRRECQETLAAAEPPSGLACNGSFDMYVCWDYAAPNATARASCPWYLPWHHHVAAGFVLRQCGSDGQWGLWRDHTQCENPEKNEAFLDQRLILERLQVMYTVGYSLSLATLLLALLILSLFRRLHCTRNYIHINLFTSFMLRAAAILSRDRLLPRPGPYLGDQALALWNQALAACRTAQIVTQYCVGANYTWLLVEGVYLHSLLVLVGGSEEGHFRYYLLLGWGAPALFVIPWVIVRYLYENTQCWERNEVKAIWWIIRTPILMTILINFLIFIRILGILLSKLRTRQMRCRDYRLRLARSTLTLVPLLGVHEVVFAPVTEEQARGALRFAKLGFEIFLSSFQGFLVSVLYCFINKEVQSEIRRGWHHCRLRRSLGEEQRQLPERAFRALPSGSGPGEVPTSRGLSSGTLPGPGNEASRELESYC
# measurement_description: cell-based or functional assay
Starred links: 1 amine or outer side, 2 acyl side, 3 side chain; linkers in the order of their positions; H or OH if unused. Non-standard residues stand in square brackets, D forms with d. Groups on a side chain read outwards from the residue. No end group written: not given here. *: point of attachment. C20 diacid = O=C(O)CCCCCCCCCCCCCCCCCCC(=O)*; γGlu = O=C(O)[C@H](CCC(=O)[*:2])N[*:1]; NMeY = CN[C@@H](Cc1ccc(O)cc1)C(=O)O; αMeF = C[C@](N)(Cc1ccccc1)C(=O)O; αMeL = CC(C)C[C@](C)(N)C(=O)O; AEEA = NCCOCCOCC(=O)O; Aib = CC(C)(N)C(=O)O
measured_quantity: cAMP Rel EC50 (1% HSA) (nM)
// return numeric value only (unit: nM, not printed)

Input line: Reported cAMP Rel EC50 (1% HSA) for [NMeY][Aib]QGT[αMeF]TSDYSILLDKQAAKAFVQWLIEGGPSSGEPPPSEG-NH2 (not fully specified (residue 20)) [Example 302] : what is it?
Output line: 91.8

Input line: Reported cAMP Rel EC50 (1% HSA) for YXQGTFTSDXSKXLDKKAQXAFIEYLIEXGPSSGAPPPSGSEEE (Aib, 4Pal, αMeL, AEEA-γGlu-C18 diacid on Lys, amide; synthetic construct; SITE 2: note = 2-Aminoisobutyric Acid; SITE 10: note = 3-(4-Pyridyl)-L-alanine; SITE 13: note = alpha-methyl-leucine; SITE 17: note = Lysine is chemically modified through conjugation of the epsilon-amino group of the Lysine side chain with (2-[2-(2-Amino-ethoxy)-ethoxy]-acetyl)) [Example 903] : what is it?
Output line: 31.2

Shift focus to the following entry.
Input line: Reported cAMP Rel EC50 (1% HSA) for Y[Aib]QGTFTSDYSK[αMeL]LDKK([AEEA-γGlu-C20 diacid])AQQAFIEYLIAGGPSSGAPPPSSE-NH2 [Example 322] : what is it?
Output line: 89.3
